All values here come from paper PMC10693550.

target: complementary peptide; experiment: Isothermal titration calorimetry (ITC) of orthogonal CC peptide pairs; assay type: binding; conditions: 3-heptad Sh pairs, 5.6 mM S1h or 5.4 mM S3h in syringe into 560 µM S2h or 540 µM S4h in cell, 50 mM Tris pH 7.5, 150 mM NaCl, 1 mM TCEP, uncertainty from Monte Carlo simulation of the fit
No end group written: not given here.
Overview of reported Kd across a group of sequences:
quantity: Kd (µM)

item_sequence="KIAALKEEIAALEQKNAALKE [S1h-S2h]" measurement_unit=µM reported_value=2300
item_sequence="EIAALEEENAALEQKIAALKE [S3h-S4h]" measurement_unit=µM reported_value=340
